Measured values drawn from patent US20220389008A1 for this set.

Tested on: Mitochondrial toxicity (Glu/Gal)
Assay: Mitochondrial toxicity (Glu/Gal) assay
Type: cell-based
Details: ratio glu/gal
Excerpt: The compounds of the invention/examples may have advantages associated with in vitro potency, kill kinetics (i.e. bactericidal effect) in vitro, PK properties, food effect, safety/toxicity (including liver toxicity, coagulation, 5-LO oxygenase), metabolic stability, Ames II negativity, MNT negativity, aqueous based solubility (and ability to formulate) and/or cardiovascular effect e.g. on animals (e.g. anesthetized guinea pig). […]

>  <Smi>
Cc1c(-c2cn3ccc(Cc4ccc(OC(F)(F)F)cc4)cc3n2)[nH]c2ccccc2c1=O

>  <Δ IC50,glu/IC50,gal>
1.2

$$$$
>  <Smi>
Cc1c(-c2nc3ccc(-c4ccc(OC(F)(F)F)cc4)cn3n2)[nH]c2ccccc2c1=O

>  <Δ IC50,glu/IC50,gal>
1.2

$$$$
>  <Smi>
Cc1nnc(-c2ccc3nc(-c4[nH]c5ccccc5c(=O)c4C)nn3c2)s1

>  <Δ IC50,glu/IC50,gal>
[x]0

$$$$
>  <Smi>
Cc1c(-c2nc3ccc(-c4cnc(C(F)(F)F)s4)cn3n2)[nH]c2ccccc2c1=O

>  <Δ IC50,glu/IC50,gal>
[x]0

$$$$

====

experiment: PK parameters in mice; settings: mouse, in vivo
Reported Endpoint: half-life

>  <Compound>
Cc1c(-c2nc3ccc(-c4ccc(OC(F)(F)F)cc4)cn3n2)[nH]c2ccccc2c1=O [Compound 6]

>  <Value>
5.6 h

$$$$

====

system: Mycobacterium tuberculosis (strain H37Ra), cyt bd; details: Mtb H37Ra; test compound 10 μM after Compound X 0.9 μM, then CCCP 1 μM

>  <Compound>
Cc1c(-c2nc3ccc(N4CCCC(C(F)(F)F)C4)cn3n2)[nH]c2ccccc2c1=O (stereo not shown) [Compound 9]

>  <Subject Of Test>
Mycobacterium tuberculosis (strain H37Ra), cyt bd

>  <(ii) % OCR after cccp / %>
62.22

$$$$
>  <Compound>
Cc1c(-c2nc3ccc(-c4ccc(F)c(F)c4)cn3n2)[nH]c2ccccc2c1=O [Compound 10]

>  <Subject Of Test>
Mycobacterium tuberculosis (strain H37Ra), cyt bd

>  <(ii) % OCR after cccp / %>
63.9

$$$$
>  <Compound>
COc1ccc2[nH]c(-c3nc4ccc(-c5ccc(OC(F)(F)F)cc5)cn4n3)c(C)c(=O)c2c1Cl [Compound 80]

>  <Subject Of Test>
Mycobacterium tuberculosis (strain H37Ra), cyt bd

>  <(ii) % OCR after cccp / %>
180.98

$$$$
>  <Compound>
Cc1c(-c2nc3ccc(Cl)cn3n2)[nH]c2ccccc2c1=O [Compound 74]

>  <Subject Of Test>
Mycobacterium tuberculosis (strain H37Ra), cyt bd

>  <(ii) % OCR after cccp / %>
173.3

$$$$

====

system: Mycobacterium tuberculosis (strain H37Ra), cyt bd; details: Mtb H37Ra; test compound 10 μM after Compound X 0.9 μM, then CCCP 1 μM
(ii) % OCR after cccp values by entry

>  <Smi>
Cc1c(-c2nc3ccc(-c4cccc(C(F)F)c4)cn3n2)[nH]c2ccccc2c1=O

>  <Subject Of Test>
Mycobacterium tuberculosis (strain H37Ra), cyt bd

>  <(ii) % OCR after cccp>
76,98%

$$$$
>  <Smi>
COc1cc(F)cc(-c2ccc3nc(-c4[nH]c5ccccc5c(=O)c4C)nn3c2)c1

>  <Subject Of Test>
Mycobacterium tuberculosis (strain H37Ra), cyt bd

>  <(ii) % OCR after cccp>
64,44%

$$$$
>  <Smi>
Cc1c(-c2nc3ccc(-c4ccnn4C)cn3n2)[nH]c2ccccc2c1=O

>  <Subject Of Test>
Mycobacterium tuberculosis (strain H37Ra), cyt bd

>  <(ii) % OCR after cccp>
85,87%

$$$$
>  <Smi>
COc1ccc(-c2ccc3nc(-c4[nH]c5ccccc5c(=O)c4C)nn3c2)cc1

>  <Subject Of Test>
Mycobacterium tuberculosis (strain H37Ra), cyt bd

>  <(ii) % OCR after cccp>
30,69%

$$$$
>  <Smi>
Cc1c(-c2nc3ccc(-c4cc(F)cc(C(F)(F)F)c4)cn3n2)[nH]c2ccccc2c1=O

>  <Subject Of Test>
Mycobacterium tuberculosis (strain H37Ra), cyt bd

>  <(ii) % OCR after cccp>
51,74%

$$$$
>  <Smi>
Cc1cc(-c2ccc3nc(-c4[nH]c5ccccc5c(=O)c4C)nn3c2)ccc1F

>  <Subject Of Test>
Mycobacterium tuberculosis (strain H37Ra), cyt bd

>  <(ii) % OCR after cccp>
51,51%

$$$$

====

tested on: Mycobacterium tuberculosis (strain H37Ra), cyt bd; details: Mtb H37Ra; test compound 10 μM after Compound X 0.9 μM, then CCCP 1 μM
(ii) % OCR after cccp values by entry

>  <Smi>
COc1ccc(-c2ccc3nc(-c4[nH]c5ccccc5c(=O)c4C)nn3c2)cc1F

>  <(ii) % OCR after cccp>
73,86%

$$$$
>  <Smi>
COc1cc(OC)cc(-c2ccc3nc(-c4[nH]c5ccccc5c(=O)c4C)nn3c2)c1

>  <(ii) % OCR after cccp>
38,98%

$$$$
>  <Smi>
Cc1c(-c2nc3ccc(-c4cccc(CC(F)(F)F)c4)cn3n2)[nH]c2ccccc2c1=O

>  <(ii) % OCR after cccp>
65,3%

$$$$
>  <Smi>
COc1cccc(-c2ccc3nc(-c4[nH]c5ccccc5c(=O)c4C)nn3c2)c1

>  <(ii) % OCR after cccp>
62,29%

$$$$
